Sourced from a melting point compilation (Tetko et al.; mined from patent text by program, amines drawn as free bases though some values may be those of a salt)

experimental endpoint: melting point

Guide cases for melting point, answers given:
O=Cc1cn(Cc2ccc(OCc3ccccc3)cc2)cc1-c1ccccc1: 100 to 101 °C
O=C(O)c1cc2sccc2nc1C(=O)O: > 380 °C
CCc1c(-c2ccc(OCc3ccccc3)cc2)c2c3c(c4c(OCc5ccccc5)ccc1n42)C(=O)OC3=O: 229 to 231 °C
COc1ccc(CN=C(Cc2ccccc2)N2CC3C(=O)CCC(c4ccccc4)(c4ccccc4)C3C2)cc1 (centres undefined): 158 °C

Consider CCCCCCCCCCC[C@H](CC(=O)N[C@@H](CO)CCCN)OCc1ccccc1 . Its measured melting point is 47 to 48 °C

// sample COCC(=O)N1CCc2cc(S(=O)(=O)N3CCN(c4cccc(Cl)c4)CC3)ccc21 , its melting point was 230 °C

Record CCOCCn1c(COc2cccc(CO)c2)nc2ccccc21 . Reported melting point: 105 to 107 °C

// Clc1cc2nc(NC3=NCCN3)[nH]c2cc1Cl : melting point value = 265 to 272 °C

Looking up O=S(=O)(c1ccccc1)n1c(C(O)c2ccoc2)cc2ccncc21 (centres undefined) , I see its melting point listed as 168 to 171 °C
